Test: viability loss in pontine glioma line – cell-based, SU-DIPG-XXV, MIPE5.0, CellTiter-Glo, qHTS, dose response (AID 1347065);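 also: cells exposed to compound for 48 hours before ATP readout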
Settings: CellTiter-Glo ATP luminescence
Results filed as inconclusive are left out. Active and inactive are the calls of the source. The limit is not given here; nearly all actives have AC50 up to about 26 µM.
I would appreciate it if you answered using one of these outcomes: active, inactive

CCN1CCN(C(=O)Cc2ccc(Nc3ncc(F)c(Nc4ccc(C(=O)Nc5ccccc5Cl)cc4)n3)cc2)CC1; active
CN1CCN(c2ccc([N+](=O)[O-])c3no[n+]([O-])c23)CC1; active
C/C(O)=C(\C#N)C(=O)Nc1cc(Br)ccc1Br; inactive

Exercise: Just curious, what result did COc1cccc2c1C(=O)c1c(O)c3c(c(O)c1C2=O)C[C@@](O)(C(=O)CO)CC3OC1CC(N2CCOC(OC)C2)C(O)C(C)O1 (stereo partly drawn) get here?
Solution: active

Exercise: Just curious, what result did `NN=C(N)N` get here?
Solution: inactive

Exercise: Just curious, what result did `C[C@@H]1CC[C@@]2(OC1)O[C@H]1C[C@H]3[C@@H]4CC=C5C[C@@H](O[C@@H]6O[C@H](CO)[C@@H](O[C@@H]7O[C@@H](C)[C@H](O)[C@@H](O)[C@H]7O)[C@H](O)[C@H]6O[C@@H]6O[C@@H](C)[C@H](O)[C@@H](O)[C@H]6O)CC[C@]5(C)[C@H]4CC[C@]3(C)[C@H]1[C@@H]2C` get here?
Solution: active

Exercise: Just curious, what result did `Cn1c(CCCC(=O)O)nc2cc(N(CCCl)CCCl)ccc21` get here?
Solution: inactive

Exercise: Just curious, what result did `O=C(O)CNC(=O)c1c(O)c2ccccc2n(Cc2ccccc2)c1=O` get here?
Solution: inactive
